target: T1, Recombinant Human PD-L1/CD274 Protein (hPD-L1-his) (human, UniProt Q9NZQ7 19-238); test: ELISA, purified mouse antibody on coated hPD-L1-his
T1 construct: range 19-238; ACRO Biosystem PD1-H5229, made in HEK293; also called human PD-L1-his; hPD-L-his
T1 sequence (Q9NZQ7 other isoform, or with tags, fused parts or gaps limits assumed): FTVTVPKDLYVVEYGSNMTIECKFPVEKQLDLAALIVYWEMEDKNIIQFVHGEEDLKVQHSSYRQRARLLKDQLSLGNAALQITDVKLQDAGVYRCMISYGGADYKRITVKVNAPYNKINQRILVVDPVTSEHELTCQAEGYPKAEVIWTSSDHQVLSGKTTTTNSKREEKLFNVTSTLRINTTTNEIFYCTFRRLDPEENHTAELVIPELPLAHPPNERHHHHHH
READOUT: EC50 (read off the curve)

What the record says about 23F11 (antibody, V domains shown, also called mouse monoclonal antibody 23F11; clone 23F11) VH: QVQLQQPGAELVKPGASVKLSCKASGYSFTTYWMHWVKQRPGQGLEWIGMIQPNSGGTKYNEKFKKKATLTVDKSSTTASMELSSLTSEDSAVYYCARGAGTVDYFDYWGQGSTLTVSS VL: DIVLTHSPVSLAVSLGQRATISCRASESVDIYGNSFMHWYQQKPGQPPKLLIYRASNLESGIPARFSGSGSRTDFTLTINPVEADDVATYYCQQSTEDPYTFGGGTKLEIK : EC50 (read off the curve) is ~6 ng/mL
